assay: in vivo; design: species or system female C3H/HeN mice; details: mouse, brain, iv, 40 mg/kg, 40 mg.kg^-1 i.v., 8h after dose, individual animals IV1-IV4, read-out: Brain product Ic concentration
recorded_metric: concentration at 8 h (ng/g)
Use ng/g as the unit, but write only the number.

# input Answer with the recorded concentration at 8 h of CO[C@H]1C(=O)[C@]2(C)[C@@H](OC)C[C@H]3OC[C@@]3(OC(C)=O)[C@H]2[C@H](OC(=O)c2ccccc2)[C@]2(O)C[C@H](OC(=O)[C@H](O)[C@@H](NC(=O)OC(C)(C)C)c3ccccc3)C(C)=C1C2(C)C [product Ia] only.
# output 9070

---

assay: in vivo; design: species or system female C3H/HeN mice; details: mouse, plasma, iv, 40 mg/kg, 40 mg.kg^-1 i.v., 24 h after dose, MEAN, read-out: Plasma product Ic concentration
recorded_metric: concentration at 24 h
Hey, just the number and the unit after it is fine.

# input Answer with the recorded concentration at 24 h of CO[C@H]1C(=O)[C@]2(C)[C@@H](OC)C[C@H]3OC[C@@]3(OC(C)=O)[C@H]2[C@H](OC(=O)c2ccccc2)[C@]2(O)C[C@H](OC(=O)[C@H](O)[C@@H](NC(=O)OC(C)(C)C)c3ccccc3)C(C)=C1C2(C)C only.
# output 16 ng/mL

---

Experiment: in vivo
Design: species or system female C3H/HeN mice
Settings: mouse, plasma, iv, 40 mg/kg, Plasma#, calculated from values ≥ b.l.q. of 20 ng.ml^-1, 40 mg.kg^-1 i.v., read-out: Terminal T1/2 (converted)
Procedure: Groups of female C3H/HeN mice received the product by the intravenous route as a bolus at a dose level of 40 mg.kg^-1 equivalent to 120 mg.m^-2. Blood and brain samples were obtained from all dosed animals sacrificed at intervals up to 72 hours post dose. Brain and corresponding plasma samples have been assayed for product Ia content by an LC-MS/MS assay. • Formulation: 2.25 mg.ml^-1 solution containing 5 % Polysorbate 80, 5 % ethanol and 90 % of an aqueous 5 % glucose solution. […]
recorded_metric: half-life (h)
Use h as the unit, but write only the number.

# input Answer with the recorded half-life of CO[C@H]1C(=O)[C@]2(C)[C@@H](OC)C[C@H]3OC[C@@]3(OC(C)=O)[C@H]2[C@H](OC(=O)c2ccccc2)[C@]2(O)C[C@H](OC(=O)[C@H](O)[C@@H](NC(=O)OC(C)(C)C)c3ccccc3)C(C)=C1C2(C)C only.
# output 2

---

test: in vivo; design: species or system female C3H/HeN mice; details: mouse, plasma, iv, 40 mg/kg, 40 mg.kg^-1 i.v., 2 min after dose, MEAN, read-out: Plasma product Ic concentration
recorded_metric: concentration at 2 min (ng/mL)
Use ng/mL as the unit, but write only the number.

# input Answer with the recorded concentration at 2 min of CO[C@H]1C(=O)[C@]2(C)[C@@H](OC)C[C@H]3OC[C@@]3(OC(C)=O)[C@H]2[C@H](OC(=O)c2ccccc2)[C@]2(O)C[C@H](OC(=O)[C@H](O)[C@@H](NC(=O)OC(C)(C)C)c3ccccc3)C(C)=C1C2(C)C only.
# output 46900

---

assay: in vivo; parameters: species or system female C3H/HeN mice; settings: mouse, plasma, iv, 40 mg/kg, 40 mg.kg^-1 i.v., 0.5h after dose, individual animals IV1-IV4, read-out: Plasma product Ic concentration
recorded_metric: concentration at 0.5 h (ng/mL)
Use ng/mL as the unit, but write only the number.

# input Answer with the recorded concentration at 0.5 h of CO[C@H]1C(=O)[C@]2(C)[C@@H](OC)C[C@H]3OC[C@@]3(OC(C)=O)[C@H]2[C@H](OC(=O)c2ccccc2)[C@]2(O)C[C@H](OC(=O)[C@H](O)[C@@H](NC(=O)OC(C)(C)C)c3ccccc3)C(C)=C1C2(C)C only.
# output 10800

---

test: in vivo; parameters: species or system female C3H/HeN mice; details: mouse, plasma, iv, 40 mg/kg, Plasma+, calculated from values ≥ l.o.d. of 4 ng.ml^-1, 40 mg.kg^-1 i.v., read-out: Vdss
recorded_metric: Vd (L/kg)
Use L/kg as the unit, but write only the number.

# input Answer with the recorded Vd of CO[C@H]1C(=O)[C@]2(C)[C@@H](OC)C[C@H]3OC[C@@]3(OC(C)=O)[C@H]2[C@H](OC(=O)c2ccccc2)[C@]2(O)C[C@H](OC(=O)[C@H](O)[C@@H](NC(=O)OC(C)(C)C)c3ccccc3)C(C)=C1C2(C)C [product Ia] only.
# output 1.9

---

experiment: in vivo; set-up: species or system female C3H/HeN mice; conditions: mouse, brain, iv, 40 mg/kg, 40 mg.kg^-1 i.v., 72 h after dose, individual animals IV1-IV4, read-out: Brain product Ic concentration
recorded_metric: concentration at 72 h (ng/g)
Use ng/g as the unit, but write only the number.

# input Answer with the recorded concentration at 72 h of CO[C@H]1C(=O)[C@]2(C)[C@@H](OC)C[C@H]3OC[C@@]3(OC(C)=O)[C@H]2[C@H](OC(=O)c2ccccc2)[C@]2(O)C[C@H](OC(=O)[C@H](O)[C@@H](NC(=O)OC(C)(C)C)c3ccccc3)C(C)=C1C2(C)C only.
# output 5900

---

test: in vivo; parameters: species or system female C3H/HeN mice; conditions: mouse, plasma, iv, 40 mg/kg, 40 mg.kg^-1 i.v., within 4h, read-out: plasma level
recorded_metric: concentration at 4 h

# input Answer with the recorded concentration at 4 h of CO[C@H]1C(=O)[C@]2(C)[C@@H](OC)C[C@H]3OC[C@@]3(OC(C)=O)[C@H]2[C@H](OC(=O)c2ccccc2)[C@]2(O)C[C@H](OC(=O)[C@H](O)[C@@H](NC(=O)OC(C)(C)C)c3ccccc3)C(C)=C1C2(C)C only.
# output < 1000 ng/mL

---

experiment: in vivo; design: species or system female C3H/HeN mice; conditions: mouse, brain, iv, 40 mg/kg, 40 mg.kg^-1 i.v., 14h after dose, MEAN, read-out: Brain product Ic concentration
recorded_metric: concentration at 14 h (ng/g)
Use ng/g as the unit, but write only the number.

# input Answer with the recorded concentration at 14 h of CO[C@H]1C(=O)[C@]2(C)[C@@H](OC)C[C@H]3OC[C@@]3(OC(C)=O)[C@H]2[C@H](OC(=O)c2ccccc2)[C@]2(O)C[C@H](OC(=O)[C@H](O)[C@@H](NC(=O)OC(C)(C)C)c3ccccc3)C(C)=C1C2(C)C [product Ia] only.
# output 9130

---

assay: in vivo; set-up: species or system female C3H/HeN mice; conditions: mouse, brain, iv, 40 mg/kg, 40 mg.kg^-1 i.v., 48 h after dose, individual animals IV1-IV4, read-out: Brain product Ic concentration
recorded_metric: concentration at 48 h
Hey, just the number and the unit after it is fine.

# input Answer with the recorded concentration at 48 h of CO[C@H]1C(=O)[C@]2(C)[C@@H](OC)C[C@H]3OC[C@@]3(OC(C)=O)[C@H]2[C@H](OC(=O)c2ccccc2)[C@]2(O)C[C@H](OC(=O)[C@H](O)[C@@H](NC(=O)OC(C)(C)C)c3ccccc3)C(C)=C1C2(C)C only.
# output 6660 ng/g

---

Assay: in vivo
Design: species or system female C3H/HeN mice
Settings: brain, iv; mouse, 40 mg.kg^-1 i.v.; at 14h; read-out: brain peak levels
Procedure: Groups of female C3H/HeN mice received the product by the intravenous route as a bolus at a dose level of 40 mg.kg^-1 equivalent to 120 mg.m^-2. Blood and brain samples were obtained from all dosed animals sacrificed at intervals up to 72 hours post dose. Brain and corresponding plasma samples have been assayed for product Ia content by an LC-MS/MS assay. • Formulation: 2.25 mg.ml^-1 solution containing 5 % Polysorbate 80, 5 % ethanol and 90 % of an aqueous 5 % glucose solution. […]
recorded_metric: Cmax at 14 h (ng/g)
Use ng/g as the unit, but write only the number.

# input Answer with the recorded Cmax at 14 h of CO[C@H]1C(=O)[C@]2(C)[C@@H](OC)C[C@H]3OC[C@@]3(OC(C)=O)[C@H]2[C@H](OC(=O)c2ccccc2)[C@]2(O)C[C@H](OC(=O)[C@H](O)[C@@H](NC(=O)OC(C)(C)C)c3ccccc3)C(C)=C1C2(C)C [product Ia] only.
# output 9100

---

assay: in vivo; parameters: species or system female C3H/HeN mice; conditions: mouse, plasma, iv, 40 mg/kg, 40 mg.kg^-1 i.v., 1h after dose, individual animals IV1-IV4, read-out: Plasma product Ic concentration
recorded_metric: concentration at 1 h (ng/mL)
Use ng/mL as the unit, but write only the number.

# input Answer with the recorded concentration at 1 h of CO[C@H]1C(=O)[C@]2(C)[C@@H](OC)C[C@H]3OC[C@@]3(OC(C)=O)[C@H]2[C@H](OC(=O)c2ccccc2)[C@]2(O)C[C@H](OC(=O)[C@H](O)[C@@H](NC(=O)OC(C)(C)C)c3ccccc3)C(C)=C1C2(C)C only.
# output 6020
